# Test method notes: physchem
Quantity kind: logP

Value of logP reported for the molecule CN(C)c1ccc2cc3ccc(N(C)C)cc3nc2c1 [Acridine orange, acridine orange] is 1.8

Note to self: logP recorded for O=C1OC2(c3ccc(O)cc3Oc3cc(O)ccc32)c2ccccc21 [Fluorescein, fluorescein] was -0.79
